Values compiled from ChEMBL document CHEMBL4651402.

Listed below: pIC50 values for each entry.
Tested on: SARS-CoV-2
test_name: microbe, parasite or virus in culture
particulars: Severe acute respiratory syndrome coronavirus 2, Vero C1008, 48 h
pIC50: −log10 of the molar value.

Record excerpt, results attached:
{"molecule": "Nc1ccc(C(=O)O)cc1", "measurement_target": "SARS-CoV-2", "observed_result": "< 4.70"}
{"molecule": "CN1C(=O)COc2c(C(=O)NC3CN4CCC3CC4)cc(Cl)cc21 (stereo not given)", "measurement_target": "SARS-CoV-2", "observed_result": "< 4.70"}
{"molecule": "C[N+](C)(C)CCOC(N)=O", "measurement_target": "SARS-CoV-2", "observed_result": "< 4.70"}
{"molecule": "CC(N)Cc1ccc(O)cc1 (stereo not given) [HYDROXYAMPHETAMINE]", "measurement_target": "SARS-CoV-2", "observed_result": "< 4.70"}
{"molecule": "N[C@@H](Cc1cc(Br)c(O)c(Br)c1)C(=O)O", "measurement_target": "SARS-CoV-2", "observed_result": "< 4.70"}

Qu. Need pIC50, item "CNC(=O)c1ccc(Nc2ncc(C(F)(F)F)c(NCc3nccnc3N(C)S(C)(=O)=O)n2)cc1"
Ans. < 4.70

Qu. Tell me the measured pIC50 of CN1CC(O)C2=CC(=NNC(N)=O)C(=O)C=C21 (stereo not given) , please.
Ans. < 4.70

Qu. // pIC50 lookup, key: NC1=NC(=O)C(c2ccccc2)O1 (stereo not given)
Ans. < 4.70

====

Tested on: SARS-CoV-2
test_name: microbe, parasite or virus in culture
particulars: Severe acute respiratory syndrome coronavirus 2, Vero C1008, 48 h, read-out: pIC50 (converted)
measure_name: IC50

{"compound": "CC(=O)Oc1cc(OC(C)=O)c2c(c1)O[C@H](c1ccc(OC(C)=O)c(OC(C)=O)c1)[C@@H](OC(C)=O)C2 [CATECHIN PENTAACETATE]", "IC50": "> 20 µM"}

Qu. Using the record for "CC[N+](C)(C)c1cccc(O)c1" , report its IC50.
Ans. > 20 µM

Qu. What IC50 value was documented for this compound, "O=C(NC[C@H](O)CN1CCc2ccccc2C1)c1cc(NC2COC2)ncn1" ?
Ans. > 20 µM

Qu. Quick one: IC50 for CCOC(=O)O[C@]1(C(=O)COC(=O)CC)CC[C@H]2[C@@H]3CCC4=CC(=O)C=C[C@]4(C)[C@H]3[C@@H](O)C[C@@]21C [PREDNICARBATE] ?
Ans. > 20 µM

====

// CC50 at 48 h lookup, one value per entry
test_name: in vitro
particulars: chlorocebus sabaeus, Vero E6 (Vero C1008) cells, CC50
Lab book: enter the figure in µM, no units written.

{"molecule": "CCCSc1ccccc1N1CCN(CCCCn2c(=O)[nH]c3ccccc3c2=O)CC1", "unit": "µM", "CC50 at 48 h": 7.24}
{"molecule": "CCCOc1ccc(C(=O)CCN2CCCCC2)cc1", "unit": "µM", "CC50 at 48 h": 31.6}
{"molecule": "Cc1ccc(C(=O)Nc2ccc(CN3CCN(C)CC3)c(C(F)(F)F)c2)cc1C#Cc1cnc2cccnn12", "unit": "µM", "CC50 at 48 h": 0.989}
{"molecule": "C#CC1(OC(C)=O)CCC2C3CCC4=C/C(=N/O)CCC4C3CCC21CC (centres undefined)", "unit": "µM", "CC50 at 48 h": 20.9}
{"molecule": "COc1cc2c(N3CCN(C(=O)Nc4ccc(OC(C)C)cc4)CC3)ncnc2cc1OCCCN1CCCCC1", "unit": "µM", "CC50 at 48 h": 11.5}
{"molecule": "CC(=O)[C@@]12OC(C)(c3ccccc3)O[C@@H]1CC1C3CCC4=CC(=O)CCC4(C)C3CCC12C (some centres undefined)", "unit": "µM", "CC50 at 48 h": 15.5}
{"molecule": "COc1cc2c(Oc3ccc4[nH]c(C)cc4c3F)ccnc2cc1OCC1(N)CC1", "unit": "µM", "CC50 at 48 h": 5.25}

Now look at this entry.
Qu. Give the measured CC50 at 48 h of "COc1cc(/C=C/C(=O)N2CCC=CC2=O)cc(OC)c1OC" .
Ans. 9.55
